test: Fecal excretion study in rats after oral NS, SF or CNS (LC–MS/MS); type: in vivo; details: rat feces, oral CNS 110 mg/kg, 72 h
reported-property: Accumulative excretion percentage (%)
The response must be a number in % with no trailing unit.

Which measured Accumulative excretion percentage value corresponds to CC(C)=CCC[C@](C)(O[C@@H]1O[C@H](CO)[C@@H](O)[C@H](O)[C@H]1O)[C@H]1CC[C@]2(C)[C@@H]1[C@H](O)C[C@@H]1[C@@]3(C)CC[C@H](O)C(C)(C)[C@@H]3[C@@H](O[C@@H]3O[C@H](CO)[C@@H](O)[C@H](O)[C@H]3O)C[C@]12C [ginsenoside Rg1] ?
3.431
